# target_system: T1, CD28 on Jurkat/IL2 reporter cells (human, UniProt P10747 19-220)
# T1 construct: whole, on cells; Endogenous CD28 of Jurkat cells; also called Jurkats (CD28)
# protocol_description: flow cytometry, Jurkat cells (CD28); MFI relative to WT CD80
endpoint: Fold change to WT CD80 (fold)

[1] variant CD80 IgV-Fc E35D/D46E/M47I (Fc fusion, not shown: a dimerising Fc or GST) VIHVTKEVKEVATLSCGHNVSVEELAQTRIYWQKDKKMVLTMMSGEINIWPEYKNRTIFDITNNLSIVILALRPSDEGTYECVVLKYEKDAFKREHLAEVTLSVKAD
[2] variant CD80 IgV-Fc E35D/D46E/A91G (Fc fusion, not shown: a dimerising Fc or GST) VIHVTKEVKEVATLSCGHNVSVEELAQTRIYWQKDKKMVLTMMSGEMNIWPEYKNRTIFDITNNLSIVILALRPSDEGTYECVVLKYEKDGFKREHLAEVTLSVKAD
Hi! Which is lower in terms of Fold change to WT CD80, the first one 1 or the second one 2 ? Please identify the chosen entry by its label.
1

[I] variant CD80 IgV-Fc E35D/D46E (Fc fusion, not shown: a dimerising Fc or GST) VIHVTKEVKEVATLSCGHNVSVEELAQTRIYWQKDKKMVLTMMSGEMNIWPEYKNRTIFDITNNLSIVILALRPSDEGTYECVVLKYEKDAFKREHLAEVTLSVKAD
[II] variant CD80 IgV-Fc D46V/M47I/A71G (Fc fusion, not shown: a dimerising Fc or GST) VIHVTKEVKEVATLSCGHNVSVEELAQTRIYWQKEKKMVLTMMSGVINIWPEYKNRTIFDITNNLSIVILGLRPSDEGTYECVVLKYEKDAFKREHLAEVTLSVKAD
Among I and II , whose measured Fold change to WT CD80 is the smaller figure? When you have decided, please share the label of that item.
I

The values you see were collected from patent US20210130436A1.
